Source listed as PubChem BioAssay AID1918946.

- System: 885512-296-R-J2-PDC complex spheroid viability
- ASSAY_INFO: Anticancer human tumor 885512-296-R-J2-PDC patient-derived breast carcinoma cell line growth inhibition; active means viability on the fitted dose curve at most 10% of control; inactive means the rest
- PROTOCOL_CONDITIONS: second compound 1 µM; first compound 0.00949 µM
Write down the outcome that applies. Available outcomes: active, inactive

Request: Dear colleague, could you share the recorded outcome for Nc1ccn(C2OC(CO)C(O)C2(F)F)c(=O)n1 (centres undefined) + NC1CC1c1ccc(-c2cccc(O)c2)cc1 when you have a moment?
Response: active

Request: Dear colleague, could you share the recorded outcome for NS(=O)(=O)OCC1CC(n2ccc3c(NC4CCc5ccccc54)ncnc32)CC1O (centres undefined) + NC1CCC(NC2CC2c2ccccc2)CC1 when you have a moment?
Response: inactive

Request: Dear colleague, could you share the recorded outcome for CCc1c2c(nc3ccc(O)cc13)-c1cc3c(c(=O)n1C2)COC(=O)[C@]3(O)CC + NC1CCC(NC2CC2c2ccccc2)CC1 when you have a moment?
Response: active

Request: Dear colleague, could you share the recorded outcome for Nc1ccccc1NC(=O)c1ccc(CNC(=O)OCc2cccnc2)cc1 + NC1CCC(NC2CC2c2ccccc2)CC1 when you have a moment?
Response: inactive

* * *

- System: 885512-296-R-J2-PDC complex spheroid viability
- ASSAY_INFO: Anticancer human tumor 885512-296-R-J2-PDC cell line growth inhibition; active = viability on the fitted dose curve at most 10% of control; inactive = the rest;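 further: spheroids exposed to agents for 7 days before viability read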
- PROTOCOL_CONDITIONS: second compound 0.316 µM; first compound 0.0316 µM
Write down the outcome that applies. Available outcomes: true for active, false for inactive

Request: Dear colleague, could you share the recorded outcome for CC(C)CC(NC(=O)C(Cc1ccccc1)NC(=O)c1cnccn1)B(O)O (stereo unspecified) + NC1CC1c1ccc(-c2cccc(O)c2)cc1 when you have a moment?
Response: true

Request: Dear colleague, could you share the recorded outcome for CC1(C)CCC(CN2CCN(c3ccc(C(=O)NS(=O)(=O)c4ccc(NCC5CCOCC5)c([N+](=O)[O-])c4)c(Oc4cnc5[nH]ccc5c4)c3)CC2)=C(c2ccc(Cl)cc2)C1 + NC1CC1c1ccc(-c2cccc(O)c2)cc1 when you have a moment?
Response: false

Request: Dear colleague, could you share the recorded outcome for CC(C)CC(NC(=O)CNC(=O)c1cc(Cl)ccc1Cl)B1OC(=O)CC(CC(=O)O)(C(=O)O)O1 (stereo unspecified) + NC1CC1c1ccc(-c2cccc(O)c2)cc1 when you have a moment?
Response: true

Request: Dear colleague, could you share the recorded outcome for O=C(C=Cn1cnc(-c2cc(C(F)(F)F)cc(C(F)(F)F)c2)n1)NNc1cnccn1 + NC1CC1c1ccc(-c2cccc(O)c2)cc1 when you have a moment?
Response: true

Request: Dear colleague, could you share the recorded outcome for CC[C@@]1(O)C(=O)OCc2c1cc1n(c2=O)Cc2cc3c(CN(C)C)c(O)ccc3nc2-1 + NC1CCC(NC2CC2c2ccccc2)CC1 when you have a moment?
Response: true

Request: Dear colleague, could you share the recorded outcome for O=C(c1cc(Cc2n[nH]c(=O)c3ccccc23)ccc1F)N1CCN(C(=O)C2CC2)CC1 + NC1CC1c1ccc(-c2cccc(O)c2)cc1 when you have a moment?
Response: false

* * *

- Tested on: 885512-296-R-J2-PDC complex spheroid viability
- ASSAY_INFO: Anticancer human tumor 885512-296-R-J2-PDC cell line growth inhibition;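 further: spheroids exposed to agents for 7 days before viability read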
- PROTOCOL_CONDITIONS: second compound 0.316 µM; first compound 0.000949 µM; stronger effect = lower value
Exercise: for every item that follows, state its recorded viability, T/C.
Only the number, expressed in %, is required.

Request: Give viability, T/C for CCc1c2c(nc3ccc(O)cc13)-c1cc3c(c(=O)n1C2)COC(=O)[C@]3(O)CC + NC1CC1c1ccc(-c2cccc(O)c2)cc1
Response: 2.42

Request: Give viability, T/C for Nc1ncn(C2CC(O)C(CO)S2)c(=O)n1 (stereo unspecified) + NC1CCC(NC2CC2c2ccccc2)CC1
Response: 93

Request: Give viability, T/C for Nc1ccn(C2OC(CO)C(O)C2(F)F)c(=O)n1 (stereo unspecified) + NC1CC1c1ccc(-c2cccc(O)c2)cc1
Response: 17.7

Request: Give viability, T/C for CCc1c2c(nc3ccc(O)cc13)-c1cc3c(c(=O)n1C2)COC(=O)[C@]3(O)CC + NC1CCC(NC2CC2c2ccccc2)CC1
Response: 2.42

Request: Give viability, T/C for Nc1ccn(C2OC(CO)C(O)C2(F)F)c(=O)n1 (stereo unspecified) + NC1CCC(NC2CC2c2ccccc2)CC1
Response: 2.51

Request: Give viability, T/C for Nc1ncn(C2CC(O)C(CO)S2)c(=O)n1 (stereo unspecified) + NC1CC1c1ccc(-c2cccc(O)c2)cc1
Response: 84.1

* * *

Exercise: for every item that follows, state its recorded viability, T/C.
- System: 885512-296-R-J2-PDC complex spheroid viability
- ASSAY_INFO: Anticancer human tumor 885512-296-R-J2-PDC cell line growth inhibition;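 further: spheroids exposed to agents for 7 days before viability read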
- PROTOCOL_CONDITIONS: second compound 0.316 µM; first compound 0.000316 µM; stronger effect = lower value
Only the number, expressed in %, is required.

Request: Give viability, T/C for CC(C)CC(NC(=O)C(Cc1ccccc1)NC(=O)c1cnccn1)B(O)O (stereo not drawn) + NC1CC1c1ccc(-c2cccc(O)c2)cc1
Response: 19

Request: Give viability, T/C for CC(C)CC(NC(=O)CNC(=O)c1cc(Cl)ccc1Cl)B1OC(=O)CC(CC(=O)O)(C(=O)O)O1 (stereo not drawn) + NC1CC1c1ccc(-c2cccc(O)c2)cc1
Response: 130

Request: Give viability, T/C for CC[C@@]1(O)C(=O)OCc2c1cc1n(c2=O)Cc2cc3c(CN(C)C)c(O)ccc3nc2-1 + NC1CCC(NC2CC2c2ccccc2)CC1
Response: 81.8

Request: Give viability, T/C for Cn1ncnc1C1c2n[nH]c(=O)c3cc(F)cc(c23)NC1c1ccc(F)cc1 (stereo not drawn) + NC1CCC(NC2CC2c2ccccc2)CC1
Response: 122

Request: Give viability, T/C for Cn1ncnc1C1c2n[nH]c(=O)c3cc(F)cc(c23)NC1c1ccc(F)cc1 (stereo not drawn) + NC1CC1c1ccc(-c2cccc(O)c2)cc1
Response: 112

Request: Give viability, T/C for CC(C)CC(NC(=O)C(Cc1ccccc1)NC(=O)c1cnccn1)B(O)O (stereo not drawn) + NC1CCC(NC2CC2c2ccccc2)CC1
Response: 134

Request: Give viability, T/C for CC(C)CC(NC(=O)CNC(=O)c1cc(Cl)ccc1Cl)B1OC(=O)CC(CC(=O)O)(C(=O)O)O1 (stereo not drawn) + NC1CCC(NC2CC2c2ccccc2)CC1
Response: 125

Request: Give viability, T/C for CC[C@@]1(O)C(=O)OCc2c1cc1n(c2=O)Cc2cc3c(CN(C)C)c(O)ccc3nc2-1 + NC1CC1c1ccc(-c2cccc(O)c2)cc1
Response: 97.2

* * *

- System: 885512-296-R-J2-PDC complex spheroid viability
- ASSAY_INFO: Anticancer human tumor 885512-296-R-J2-PDC cell line growth inhibition;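 further: spheroids exposed to agents for 7 days before viability read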
- PROTOCOL_CONDITIONS: second compound 3.16 µM; first compound 10 µM; stronger effect = lower value
Checkbox rule: viability, T/C lower than 9% = criterion met; viability, T/C not lower than 9% = criterion not met.

Request: Regarding CC1COCCN1c1cc(C2(S(C)(=N)=O)CC2)nc(-c2ccnc3[nH]ccc23)n1 (stereo not given) + NC1CCC(NC2CC2c2ccccc2)CC1 , kindly confirm whether its viability, T/C is beneath 9%.
Response: criterion met

Request: Regarding COc1ccc([C@@H](O)c2cc(-c3ncnc4cc(N5CCOCC5)ccc34)c(F)cc2Cl)nn1 + NC1CC1c1ccc(-c2cccc(O)c2)cc1 , kindly confirm whether its viability, T/C is beneath 9%.
Response: criterion not met

Request: Regarding CC1COCCN1c1cc(C2(S(C)(=N)=O)CC2)nc(-c2ccnc3[nH]ccc23)n1 (stereo not given) + NC1CC1c1ccc(-c2cccc(O)c2)cc1 , kindly confirm whether its viability, T/C is beneath 9%.
Response: criterion met

Request: Regarding CC(C)c1c(-c2ccccc2)nc2c(C#N)c[nH]n2c1=O + NC1CCC(NC2CC2c2ccccc2)CC1 , kindly confirm whether its viability, T/C is beneath 9%.
Response: criterion not met

Request: Regarding O=C(c1cc(Cc2n[nH]c(=O)c3ccccc23)ccc1F)N1CCN(C(=O)C2CC2)CC1 + NC1CC1c1ccc(-c2cccc(O)c2)cc1 , kindly confirm whether its viability, T/C is beneath 9%.
Response: criterion met

Request: Regarding CC1(C)CCC(CN2CCN(c3ccc(C(=O)NS(=O)(=O)c4ccc(NCC5CCOCC5)c([N+](=O)[O-])c4)c(Oc4cnc5[nH]ccc5c4)c3)CC2)=C(c2ccc(Cl)cc2)C1 + NC1CC1c1ccc(-c2cccc(O)c2)cc1 , kindly confirm whether its viability, T/C is beneath 9%.
Response: criterion met

Request: Regarding CC1(C)CCC(CN2CCN(c3ccc(C(=O)NS(=O)(=O)c4ccc(NCC5CCOCC5)c([N+](=O)[O-])c4)c(Oc4cnc5[nH]ccc5c4)c3)CC2)=C(c2ccc(Cl)cc2)C1 + NC1CCC(NC2CC2c2ccccc2)CC1 , kindly confirm whether its viability, T/C is beneath 9%.
Response: criterion not met

Request: Regarding CC(C)c1c(-c2ccccc2)nc2c(C#N)c[nH]n2c1=O + NC1CC1c1ccc(-c2cccc(O)c2)cc1 , kindly confirm whether its viability, T/C is beneath 9%.
Response: criterion not met

Request: Regarding COc1ccc([C@@H](O)c2cc(-c3ncnc4cc(N5CCOCC5)ccc34)c(F)cc2Cl)nn1 + NC1CCC(NC2CC2c2ccccc2)CC1 , kindly confirm whether its viability, T/C is beneath 9%.
Response: criterion not met

Request: Regarding O=C(c1cc(Cc2n[nH]c(=O)c3ccccc23)ccc1F)N1CCN(C(=O)C2CC2)CC1 + NC1CCC(NC2CC2c2ccccc2)CC1 , kindly confirm whether its viability, T/C is beneath 9%.
Response: criterion met
